Biological target: T1, huIL-17RA-FLAG-polyHis (human, UniProt Q96F46 33-320)
T1 construct: also called IL-17RA-FLAG-pHis; wild-type IL-17RA
Assay: binning; IL-17RA held by bead mAb C
Entries and their normalized MFI values follow.
Note: the reply should be a number with no unit written.

These solved cases illustrate the format of a correct answer.
>  <binder>
AMH21/AML21 (antibody, IgG2, V domains shown, human mAb from IgG2 XenoMouse mice; also called AM-21; antibody Q) VH: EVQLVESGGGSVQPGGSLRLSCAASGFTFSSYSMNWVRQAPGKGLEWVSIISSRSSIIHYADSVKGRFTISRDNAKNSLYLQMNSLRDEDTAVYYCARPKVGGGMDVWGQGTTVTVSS VL: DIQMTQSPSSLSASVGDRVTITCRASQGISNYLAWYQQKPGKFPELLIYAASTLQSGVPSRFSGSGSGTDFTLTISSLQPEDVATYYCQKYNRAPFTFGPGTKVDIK

>  <data value>
4770

$$$$
>  <binder>
AMH8/AML8 (antibody, IgG2, V domains shown, human mAb from IgG2 XenoMouse mice; also called AM-8; antibody C) VH: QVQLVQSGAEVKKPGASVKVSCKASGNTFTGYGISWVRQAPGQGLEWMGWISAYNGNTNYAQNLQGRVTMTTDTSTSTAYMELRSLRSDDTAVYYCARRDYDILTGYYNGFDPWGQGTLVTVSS VL: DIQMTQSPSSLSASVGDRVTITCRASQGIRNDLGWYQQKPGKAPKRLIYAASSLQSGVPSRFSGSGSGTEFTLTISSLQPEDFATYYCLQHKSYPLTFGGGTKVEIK

>  <data value>
260

$$$$
>  <binder>
AMH11/AML11 (antibody, IgG2, V domains shown, human mAb from IgG2 XenoMouse mice; also called AM-11; antibody A) VH: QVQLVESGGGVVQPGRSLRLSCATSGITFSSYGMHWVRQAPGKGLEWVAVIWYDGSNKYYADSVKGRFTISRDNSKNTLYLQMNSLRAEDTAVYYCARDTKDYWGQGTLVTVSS VL: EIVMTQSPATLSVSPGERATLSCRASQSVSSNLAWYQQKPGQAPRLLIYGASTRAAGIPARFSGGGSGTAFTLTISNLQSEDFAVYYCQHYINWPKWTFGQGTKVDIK

>  <data value>
330

$$$$
>  <binder>
AMH12/AML12 (antibody, IgG2, V domains shown, human mAb from IgG2 XenoMouse mice; also called AM-12; antibody M) VH: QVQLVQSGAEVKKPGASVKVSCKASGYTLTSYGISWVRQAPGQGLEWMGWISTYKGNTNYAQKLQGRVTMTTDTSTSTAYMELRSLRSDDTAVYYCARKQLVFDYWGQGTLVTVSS VL: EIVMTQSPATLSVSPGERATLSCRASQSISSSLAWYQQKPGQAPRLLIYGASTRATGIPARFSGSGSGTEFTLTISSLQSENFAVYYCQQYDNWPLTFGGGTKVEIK

>  <data value>
3040

$$$$

Now turn to the next binder.
Q. Identify measured normalized MFI corresponding to AMH20/AML20 (antibody, IgG2, V domains shown, human mAb from IgG2 XenoMouse mice; also called AM-20; antibody R) VH: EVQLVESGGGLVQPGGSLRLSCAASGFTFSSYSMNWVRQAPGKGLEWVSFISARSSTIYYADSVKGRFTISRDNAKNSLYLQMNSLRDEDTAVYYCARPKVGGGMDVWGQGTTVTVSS VL: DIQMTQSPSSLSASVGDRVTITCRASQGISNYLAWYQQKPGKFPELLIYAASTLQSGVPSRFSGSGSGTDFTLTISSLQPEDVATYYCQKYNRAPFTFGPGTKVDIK
A. 2990
